# credit: PubChem BioAssay (NCI)

Tested on: NCI-H460 lung
Experiment: NCI tumour cell line growth inhibition, 48 h
Form field: TGI (one value per entry).

- COMPOUND: "COC1=CC(c2ccc[nH]2)=N/C1=C\\c1[nH]c(C)c(CC(=O)OCc2ccccc2)c1C"
  TGI: "1.72 µM"
- COMPOUND: "CCOC1NC(=O)Oc2cc3ccccc3cc21 (stereo unspecified)"
  TGI: "> 100 µM"
- COMPOUND: "NC(=O)CC(N)C(=O)NC(Cc1ccccc1)C(=O)NC(Cc1ccccc1)NC(=O)C(Cc1c[nH]c2ccccc12)C(=O)O (stereo unspecified)"
  TGI: "> 100 µM"
- COMPOUND: "CC(C)(C)NC(=O)/C(=C\\Sc1ccccc1)c1ccccc1"
  TGI: "> 100 µM"
- COMPOUND: "Cc1[nH]c(N)nc(=S)c1CCC(=O)O"
  TGI: "> 100 µM"

Data request: Suppose we examine the compound CCOC(=O)C(Cc1ccccc1)NC(=O)c1[nH]cnc1/N=N/N(C)C (stereo unspecified) ; what TGI value has been reported?
Data returned: > 100 µM

====

System: HCC-2998 colon
Assay: NCI tumour cell line growth inhibition, 48 h
MEASUREMENT_LABEL: TGI

These recorded examples may help you get a feel for the data.
- COMPOUND: "COc1cc(OC)c(OC)cc1/C=C/c1cnnc2ccccc12"
  TGI: "> 10 µM"
- COMPOUND: "N/C(=N\\Nc1ccc(Cl)cc1)c1cnccn1"
  TGI: "79.1 µM"
- COMPOUND: "O=c1[nH]nc(Cc2ccccc2)n1/N=C/c1cccnc1"
  TGI: "> 100 µM"

Data request: Suppose we examine the compound CC(C(=O)c1ccncc1)c1ccccn1 (configuration not stated) ; what TGI value has been reported?
Data returned: > 100 µM

Data request: Suppose we examine the compound C1CN(P2(N3CC3)=NP(N3CC3)(N3CC3)=NP(N3CC3)(N3CC3)=N2)CCO1 (configuration not stated) ; what TGI value has been reported?
Data returned: > 100 µM

Data request: Suppose we examine the compound `N#CC(C#N)=Cc1ccc(CP(=O)(O)O)cc1` ; what TGI value has been reported?
Data returned: > 100 µM

Data request: Suppose we examine the compound COC(=O)C(Cc1ccc(N(C)C)cc1)(NC(=O)c1ccccc1)P(=O)(OC)OC (configuration not stated) ; what TGI value has been reported?
Data returned: > 100 µM

====

System: 786-0 renal
Assay: NCI tumour cell line growth inhibition, 48 h
MEASUREMENT_LABEL: TGI

- COMPOUND: "O=C(c1cccs1)N1CCCN(C(=O)c2cccs2)C1=S"
  SYSTEM_UNDER_TEST: "786-0 renal"
  TGI: "> 100 µM"
- COMPOUND: "C[C@]12CC[C@H]3[C@@H](CC4SC(N)=NC45C/C(=N/NC(N)=O)CC[C@]35C)[C@@H]1CCC2=O (stereo not given in full)"
  SYSTEM_UNDER_TEST: "786-0 renal"
  TGI: "2.82 µM"
- COMPOUND: "COc1ccc2oc(-c3ccc(OC)c(OC)c3OC)cc(=O)c2c1"
  SYSTEM_UNDER_TEST: "786-0 renal"
  TGI: "> 100 µM"
- COMPOUND: "Cc1[nH]c2ccccc2c1/C=N/NC(=O)c1cccc(I)c1"
  SYSTEM_UNDER_TEST: "786-0 renal"
  TGI: "45.5 µM"

Data request: Query TGI on 786-0 renal for `CCCCSC1=N/C(=C\c2ccc(N(C)C)cc2)C(=O)N1`
Data returned: 42.9 µM

Data request: Query TGI on 786-0 renal for CC([C@H]1CC=C2C3CCC4=C[C@@H](N(C)C)CC[C@]4(C)C3CC[C@@]21C)N(C)C (stereo not given in full)
Data returned: 7.99 µM

Data request: Query TGI on 786-0 renal for NC(=O)c1cccc(OCC(O)CO)c1 (stereo not given)
Data returned: > 100 µM

====

Form field: TGI (one value per entry).
Tested on: RXF 393 renal
Experiment: NCI tumour cell line growth inhibition, 48 h
Just the number in µM, nothing appended.

- COMPOUND: "CCCCCCCC/C=C1\\CCC(CN2CCOCC2)C1=O (stereo unspecified)"
  READOUT_NUMBER: 25.3
- COMPOUND: "NCCNC(=O)c1cccc2cc3ccccc3nc12"
  READOUT_NUMBER: 10.2
- COMPOUND: "CC(C)=CC(=O)N[C@H]1CC[C@]2(C)C3CC[C@]4(C)C(C(C)N(C)C)=CCC4C3CCC2[C@H]1O (stereo partly specified)"
  READOUT_NUMBER: 9.74

Next:
Data request: Query TGI on RXF 393 renal for `COC(=O)[C@]1(c2ccc(N(C)C)cc2OC)C[C@@H]2CCCN(CCc3c1[nH]c1ccccc31)C2`
Data returned: 37.9

====

Form field: TGI (one value per entry).
System: HL-60(TB) leukemia
Experiment: NCI tumour cell line growth inhibition, 48 h
Just the number in µM, nothing appended.

- SAMPLE_SMILES: "Cc1ccc2nc3cc(C)c(=O)cc-3sc2c1"
  SYSTEM_UNDER_TEST: "HL-60(TB) leukemia"
  READOUT_NUMBER: 64.7

Data request: Suppose we examine the compound `Cc1ccc2c(c1)C(=O)c1c-2c(OCCCN(C)C)nc2ccccc12` ; what TGI value has been reported?
Data returned: 19.6

Data request: Suppose we examine the compound `C=C1C(=O)O[C@H]2[C@H]1CC/C(COC(=O)CCCc1c[nH]c3ccccc13)=C\CC[C@@]1(C)O[C@@H]21` ; what TGI value has been reported?
Data returned: 5.01

Data request: Suppose we examine the compound `O=C(c1ccco1)c1c(C(F)(F)F)n([O-])c2cc(C(F)(F)F)ccc2[n+]1=O` ; what TGI value has been reported?
Data returned: 0.484

Data request: Suppose we examine the compound `O=C(N/N=C\c1cccc2ccccc12)Nc1cccc2ccccc12` ; what TGI value has been reported?
Data returned: 60.8

Data request: Suppose we examine the compound `COC(=O)/C(C#N)=C(\N)C(Cl)(Cl)Cl` ; what TGI value has been reported?
Data returned: 1.32

====

Form field: TGI (one value per entry).
Tested on: MCF7 breast
Assay: NCI tumour cell line growth inhibition, 48 h

- MOLECULE: "C#C[C@@]1(O)CCCC2=CC3(CC[C@]21C)SCCS3"
  TGI: "> 100 µM"
- MOLECULE: "O=C(O)c1c2c(cc3c1CC1(Cc4cc5c(cc4C1=O)CCC5)C3)CCC2 (stereo unspecified)"
  TGI: "> 100 µM"
- MOLECULE: "COC(=O)c1c(C)cccc1C1CN=NC12Cc1cc(C)cc(C)c1C2=O (stereo unspecified)"
  TGI: "29.1 µM"
- MOLECULE: "O=C(c1cccs1)N1CCCN(C(=O)c2cccs2)C1=S"
  TGI: "> 100 µM"
- MOLECULE: "CC([C@H]1CC=C2C3CCC4=C[C@@H](N(C)C)CC[C@]4(C)C3CC[C@@]21C)N(C)C (stereo partly specified)"
  TGI: "9.4 µM"

Next:
Data request: Suppose we examine the molecule NC(=O)CC(N)C(=O)NC(Cc1ccccc1)C(=O)NC(Cc1ccccc1)NC(=O)C(Cc1c[nH]c2ccccc12)C(=O)O (stereo unspecified) ; what TGI value has been reported?
Data returned: > 100 µM

====

Form field: GI50 (one value per entry).
Test system: HCC-2998 colon
Assay: NCI tumour cell line growth inhibition, 48 h

- COMPOUND: "Clc1ccc2nc(CI)c(CI)nc2c1"
  SYSTEM_UNDER_TEST: "HCC-2998 colon"
  GI50: "15700 nM"
- COMPOUND: "O=C(c1ccco1)c1c(C(F)(F)F)n([O-])c2cc(C(F)(F)F)ccc2[n+]1=O"
  SYSTEM_UNDER_TEST: "HCC-2998 colon"
  GI50: "371 nM"
- COMPOUND: "C[n+]1c2ccccc2nc2ccccc21"
  SYSTEM_UNDER_TEST: "HCC-2998 colon"
  GI50: "2110 nM"
- COMPOUND: "C=C1C(=O)O[C@H]2[C@H]1CC/C(Cn1cc(-c3ccc(F)cc3)nn1)=C\\CC[C@@]1(C)O[C@@H]21"
  SYSTEM_UNDER_TEST: "HCC-2998 colon"
  GI50: "1740 nM"
- COMPOUND: "CC(C)c1cccc(O)c(=O)c1"
  SYSTEM_UNDER_TEST: "HCC-2998 colon"
  GI50: "1.63 µg/mL"

Data request: Suppose we examine the compound `CCCCCC[C@@H](C)NC(=O)c1ccc(Nc2nc3ccccc3c3occc23)cc1` ; what GI50 value has been reported?
Data returned: 2510 nM

Data request: Suppose we examine the compound `COc1cc(C(=O)O[C@H](C(=O)NCCN(C)CCNC(=O)[C@@H](OC(=O)c2cc(OC)cc3c(C)cccc23)[C@]2(C)CO2)[C@]2(C)CO2)c2cccc(C)c2c1` ; what GI50 value has been reported?
Data returned: < 24.1 nM

Data request: Suppose we examine the compound `C=C1C(=O)O[C@H]2[C@H]1CC/C(COC(=O)CCCc1c[nH]c3ccccc13)=C\CC[C@@]1(C)O[C@@H]21` ; what GI50 value has been reported?
Data returned: 1790 nM

Data request: Suppose we examine the compound CN(C)CCCC1(c2ccc(F)cc2)OCc2cc(-c3cc4ccccc4s3)ccc21 (stereo not given) ; what GI50 value has been reported?
Data returned: 1670 nM

Data request: Suppose we examine the compound `COC(=O)c1c2c(c(C)[n+]([O-])c1C)C(=O)C=C(NCc1cccc(Cl)c1)C2=O` ; what GI50 value has been reported?
Data returned: 329 nM
